Tested on: Caupolican (Caup) homeodomain DNA-binding domain
Sequence: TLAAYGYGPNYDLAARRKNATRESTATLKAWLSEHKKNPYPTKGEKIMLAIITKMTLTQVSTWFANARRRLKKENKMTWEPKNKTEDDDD
Test: PBM E-score (8-mer, recovered from the published 9-mer minima) (E-score (dimensionless, -0.5 to 0.5)); Drosophila protein; higher = stronger relative binding preference, active = 0.31 or more
This excerpt belongs to a sample that is enriched for hits. The true hit rate is not given.
Outcomes: 1 (active), 0 (inactive)

INSERT INTO assay_data (primary_sequence, label_value) VALUES
  ('CGGTAGGA', 0),
  ('ATCTCTGG', 0),
  ('AAGGCTCA', 0),
  ('GAAAAAGA', 0),
  ('TACTTTAA', 0),
  ('CTGGCCAG', 0),
  ('CCTGGTGA', 0),
  ('ATACACAA', 1),
  ('AGTGCGGA', 0),
  ('ATTAGATG', 0),
  ('CTGAAACC', 0),
  ('AGTCGAAA', 0),
  ('AAGTAATT', 0),
  ('AAGTCACA', 0);
